Tested on: 885724-159-R-J1-PDC complex spheroid viability
Assay: Anticancer human tumor 885724-159-R-J1-PDC patient-derived pancreatic adenocarcinoma cell line growth inhibition [GQUAD]
Conditions: second compound 3.16 µM; first compound 3.16 µM; stronger effect = lower value
So basically, the class depends on measured viability, T/C, and the ranges are low group: < 30%; middle group: ≥ 30% and < 70%; high group: ≥ 70%

Example cases with answers are listed next.
{"COMPOUND": "CC(=O)O[C@H]1C(=O)[C@@]2(C)[C@H]([C@H](OC(=O)c3ccccc3)[C@]3(O)C[C@H](OC(=O)[C@H](O)[C@@H](NC(=O)c4ccccc4)c4ccccc4)C(C)=C1C3(C)C)[C@]1(OC(C)=O)CO[C@@H]1C[C@@H]2O + Cc1cnc(CNC(=O)c2c(=O)c3ccc(N4CCCN(C)CC4)nc3n3c2sc2ccccc23)cn1", "CATEGORY": "high group"}
{"COMPOUND": "CC(C)(O)C1CCC(Nc2ccc3ncc(-c4cccc(C(F)(F)F)c4)n3n2)CC1 (stereo unspecified) + Cc1[nH]c2ccc(F)cc2c1-c1nc2c3cccnc3c3ncccc3c2[nH]1", "CATEGORY": "low group"}

For the next question, use this compound.
Bin? CC1COCCN1c1cc(-c2ccnn2C)c2ccnc(-c3ccn[nH]3)c2n1 (stereo unspecified) + Cc1[nH]c2ccc(F)cc2c1-c1nc2c3cccnc3c3ncccc3c2[nH]1
low group

###

Tested on: 885724-159-R-J1-PDC complex spheroid viability
Assay: Anticancer human tumor 885724-159-R-J1-PDC cell line growth inhibition [GQUAD]
Conditions: second compound 0.0316 µM; first compound 0.1 µM; stronger effect = lower value
QUANTITY: viability, T/C (%)
Write the value in % as a bare number.

Below: 3 compounds and their reported viability, T/C.
{"COMPOUND": "C#Cc1c(F)ccc2cc(O)cc(-c3ncc4c(N5CC6CCC(C5)N6)nc(OCC56CCCN5CC(F)C6)nc4c3F)c12 (stereo not given) + Cc1[nH]c2ccc(F)cc2c1-c1nc2c3cccnc3c3ncccc3c2[nH]1", "TESTED SYSTEM": "885724-159-R-J1-PDC complex spheroid viability", "viability, T/C / %": 89.2}
{"COMPOUND": "COc1cc(C2c3cc4c(cc3C(OC3OC5COC(C)OC5C(O)C3O)C3COC(=O)C23)OCO4)cc(OC)c1O (stereo not given) + Cc1[nH]c2ccc(F)cc2c1-c1nc2c3cccnc3c3ncccc3c2[nH]1", "TESTED SYSTEM": "885724-159-R-J1-PDC complex spheroid viability", "viability, T/C / %": 88.7}
{"COMPOUND": "C=CC(=O)N1CCN(c2nc(=O)n(-c3c(C)ccnc3C(C)C)c3nc(-c4c(O)cccc4F)c(F)cc23)C(C)C1 (stereo not given) + Cc1cnc(CNC(=O)c2c(=O)c3ccc(N4CCCN(C)CC4)nc3n3c2sc2ccccc23)cn1", "TESTED SYSTEM": "885724-159-R-J1-PDC complex spheroid viability", "viability, T/C / %": 114}

Identify viability, T/C associated with the compound Nc1ccn(C2OC(CO)C(O)C2(F)F)c(=O)n1 (stereo not given) + Cc1cnc(CNC(=O)c2c(=O)c3ccc(N4CCCN(C)CC4)nc3n3c2sc2ccccc23)cn1
104

Identify viability, T/C associated with the compound C=CC(=O)N1CCN(c2nc(=O)n(-c3c(C)ccnc3C(C)C)c3nc(-c4c(O)cccc4F)c(F)cc23)C(C)C1 (stereo not given) + CN(C)c1ccc(Nc2c3ccc(NC(=O)CCN4CCCC4)cc3nc3cc(NC(=O)CCN4CCCC4)ccc23)cc1
101

###

System: 885724-159-R-J1-PDC complex spheroid viability
Assay: Anticancer human tumor 885724-159-R-J1-PDC cell line growth inhibition [GQUAD]
Conditions: second compound 0.0316 µM; first compound 0.1 µM; stronger effect = lower value
Reported viability, T/C by item:
Write the value in % as a bare number.

Below: 2 compounds and their reported viability, T/C.
{"COMPOUND": "COc1ncnc(C2CC2)c1-c1ncc2cnn(Cc3ccc(-c4nc(C(F)(F)F)cn4C(C)C)cc3)c2n1 + Cc1cnc(CNC(=O)c2c(=O)c3ccc(N4CCCN(C)CC4)nc3n3c2sc2ccccc23)cn1", "QUANTITY": "viability, T/C", "ENDPOINT RESULT": 106}
{"COMPOUND": "CCCS(=O)(=O)Nc1ccc(F)c(C(=O)c2c[nH]c3ncc(-c4ccc(Cl)cc4)cc23)c1F + CN(C)c1ccc(Nc2c3ccc(NC(=O)CCN4CCCC4)cc3nc3cc(NC(=O)CCN4CCCC4)ccc23)cc1", "QUANTITY": "viability, T/C", "ENDPOINT RESULT": 114}

Identify viability, T/C associated with the compound Cc1cccc(N(C)C(=O)C2C(O)CCN2c2nc(C)cc(C(F)(F)F)c2C#N)c1 (stereo not drawn) + Cc1[nH]c2ccc(F)cc2c1-c1nc2c3cccnc3c3ncccc3c2[nH]1
93.1

###

Reported viability, T/C by item:
Test system: 885724-159-R-J1-PDC complex spheroid viability
Assay: Anticancer human tumor 885724-159-R-J1-PDC cell line growth inhibition [GQUAD];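 note: spheroids exposed to agents for seven days before readout; percent of vehicle control viability where 100% = DMSO wells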
Settings: second compound 0.1 µM; first compound 0.0999 µM; stronger effect = lower value
Write the value in % as a bare number.

{"COMPOUND": "Cn1ncnc1[C@H]1c2n[nH]c(=O)c3cc(F)cc(c23)N[C@@H]1c1ccc(F)cc1 + Cc1[nH]c2ccc(F)cc2c1-c1nc2c3cccnc3c3ncccc3c2[nH]1", "TESTED SYSTEM": "885724-159-R-J1-PDC complex spheroid viability", "viability, T/C, %": 88.3}
{"COMPOUND": "CCc1c2c(nc3ccc(O)cc13)-c1cc3c(c(=O)n1C2)COC(=O)[C@]3(O)CC + Cc1cnc(CNC(=O)c2c(=O)c3ccc(N4CCCN(C)CC4)nc3n3c2sc2ccccc23)cn1", "TESTED SYSTEM": "885724-159-R-J1-PDC complex spheroid viability", "viability, T/C, %": 45.2}

Identify viability, T/C associated with the compound Cn1ncnc1[C@H]1c2n[nH]c(=O)c3cc(F)cc(c23)N[C@@H]1c1ccc(F)cc1 + CN(C)c1ccc(Nc2c3ccc(NC(=O)CCN4CCCC4)cc3nc3cc(NC(=O)CCN4CCCC4)ccc23)cc1
96

###

Reported viability, T/C by item:
Test system: 885724-159-R-J1-PDC complex spheroid viability
Experiment: Anticancer human tumor 885724-159-R-J1-PDC cell line growth inhibition [GQUAD];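 note: spheroids exposed to agents for seven days before readout; percent of vehicle control viability where 100% = DMSO wells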
Details: second compound 0.0316 µM; first compound 0.0316 µM; stronger effect = lower value
Write the value in % as a bare number.

{"COMPOUND": "CC1COCCN1c1cc(-c2ccnn2C)c2ccnc(-c3ccn[nH]3)c2n1 (configuration not stated) + Cc1[nH]c2ccc(F)cc2c1-c1nc2c3cccnc3c3ncccc3c2[nH]1", "UNIT NAME": "%", "viability, T/C": 104}

Identify viability, T/C associated with the compound CC(=O)O[C@H]1C(=O)[C@@]2(C)[C@H]([C@H](OC(=O)c3ccccc3)[C@]3(O)C[C@H](OC(=O)[C@H](O)[C@@H](NC(=O)c4ccccc4)c4ccccc4)C(C)=C1C3(C)C)[C@]1(OC(C)=O)CO[C@@H]1C[C@@H]2O + Cc1cnc(CNC(=O)c2c(=O)c3ccc(N4CCCN(C)CC4)nc3n3c2sc2ccccc23)cn1
103

###

System: 885724-159-R-J1-PDC complex spheroid viability
Assay: Anticancer human tumor 885724-159-R-J1-PDC cell line growth inhibition [GQUAD];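 note: spheroids exposed to agents for seven days before readout; percent of vehicle control viability where 100% = DMSO wells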
Settings: second compound 3.16 µM; first compound 0.316 µM; stronger effect = lower value
QUANTITY: viability, T/C (%)
Write the value in % as a bare number.

{"COMPOUND": "Cn1ncnc1[C@H]1c2n[nH]c(=O)c3cc(F)cc(c23)N[C@@H]1c1ccc(F)cc1 + CN(C)c1ccc(Nc2c3ccc(NC(=O)CCN4CCCC4)cc3nc3cc(NC(=O)CCN4CCCC4)ccc23)cc1", "ENDPOINT RESULT": 75.6}

Identify viability, T/C associated with the compound O=C(c1cc(Cc2n[nH]c(=O)c3ccccc23)ccc1F)N1CCN(C(=O)C2CC2)CC1 + Cc1[nH]c2ccc(F)cc2c1-c1nc2c3cccnc3c3ncccc3c2[nH]1
56.6

Identify viability, T/C associated with the compound COc1ccc([C@@H](O)c2cc(-c3ncnc4cc(N5CCOCC5)ccc34)c(F)cc2Cl)nn1 + CN(C)c1ccc(Nc2c3ccc(NC(=O)CCN4CCCC4)cc3nc3cc(NC(=O)CCN4CCCC4)ccc23)cc1
73.7

###

Tested on: 885724-159-R-J1-PDC complex spheroid viability
Assay: Anticancer human tumor 885724-159-R-J1-PDC cell line growth inhibition [GQUAD];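 note: spheroids exposed to agents for seven days before readout; percent of vehicle control viability where 100% = DMSO wells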
Conditions: second compound 0.0316 µM; first compound 0.0316 µM; stronger effect = lower value
QUANTITY: viability, T/C (%)
Write the value in % as a bare number.

{"COMPOUND": "CC(=O)O[C@H]1C(=O)[C@@]2(C)[C@H]([C@H](OC(=O)c3ccccc3)[C@]3(O)C[C@H](OC(=O)[C@H](O)[C@@H](NC(=O)c4ccccc4)c4ccccc4)C(C)=C1C3(C)C)[C@]1(OC(C)=O)CO[C@@H]1C[C@@H]2O + CN(C)c1ccc(Nc2c3ccc(NC(=O)CCN4CCCC4)cc3nc3cc(NC(=O)CCN4CCCC4)ccc23)cc1", "UNIT NAME": "%", "viability, T/C": 92.9}

From here, focus on the item given below.
Identify viability, T/C associated with the compound C#Cc1c(F)ccc2cc(O)cc(-c3ncc4c(N5CC6CCC(C5)N6)nc(OCC56CCCN5CC(F)C6)nc4c3F)c12 (configuration not stated) + CN(C)c1ccc(Nc2c3ccc(NC(=O)CCN4CCCC4)cc3nc3cc(NC(=O)CCN4CCCC4)ccc23)cc1
92.1
